Where do these numbers come from? They come from patent US12116358B2.

# subject of test: SETD2(1434-1711) (Homo sapiens, UniProt Q9BYW2)
# Construct: SETD2 (1434-1711) Assay; catalogue N/A
# test details: SETD2 (1434-1711) assay
# Assay type: biochemical
# particulars: read-out: SETD2 (1434-1711)
# reported IC50; entries follow
Entry rule: numbers only, all in nM.

[
  {
    "compound": "Cc1ccc(F)c2cc(C(=O)N[C@@H]3CCC[C@H](N4CCN(C(=O)C5COC5)CC4)C3)[nH]c12",
    "unit symbol": "nM",
    "measured number": 20
  },
  {
    "compound": "Cc1ccc(F)c2cc(C(=O)Nc3cccc(N4CCOC(CO)C4)c3)[nH]c12 (stereo not shown)",
    "unit symbol": "nM",
    "measured number": 50
  }
]

Now take the following compound into account.
*Q* Return reported IC50; argument: Cc1cccnc1C(Cc1ccc(CN2CCOCC2)cc1)NC(=O)c1cc2c(F)ccc(C)c2[nH]1 (stereo not shown)
*A* 900

---

# subject of test: SETD2(1434-1711) (Homo sapiens)
# Construct: SETD2 (1434-1711) Assay; catalogue N/A
# Sequence (Q9BYW2 1434-1711): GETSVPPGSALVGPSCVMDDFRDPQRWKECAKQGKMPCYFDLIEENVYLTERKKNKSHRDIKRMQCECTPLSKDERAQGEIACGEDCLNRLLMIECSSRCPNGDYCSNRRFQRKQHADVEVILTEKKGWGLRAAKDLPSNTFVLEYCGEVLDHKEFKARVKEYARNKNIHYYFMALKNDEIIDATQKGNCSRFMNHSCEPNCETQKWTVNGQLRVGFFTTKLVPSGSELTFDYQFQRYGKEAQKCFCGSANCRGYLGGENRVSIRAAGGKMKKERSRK
# test details: SETD2 (1434-1711) assay
# Type: biochemical
# particulars: read-out: SETD2 (1434-1711)
measured endpoint: IC50 (nM)
Entry rule: numbers only, all in nM.

Recorded results for 5 compounds are shown here.
[
  {
    "compound": "Cc1ccc(F)c2cc(C(=O)NC3CCCc4cnccc43)[nH]c12 (centres unmarked)",
    "IC50 (nM)": 2500
  },
  {
    "compound": "Cc1ccc(F)c2cc(C(=O)Nc3cccc(C4CCC(N(C)C)C4)c3)[nH]c12 (centres unmarked)",
    "IC50 (nM)": 40
  },
  {
    "compound": "Cc1ccc(F)c2cc(C(=O)Nc3cccc(N4CCC(N5CCC(N)CC5)CC4)c3)[nH]c12",
    "IC50 (nM)": 7
  },
  {
    "compound": "CC(=O)N1CCN(c2cc(F)cc(NC(=O)c3cc4c(F)cccc4[nH]3)c2)CC1",
    "IC50 (nM)": 200
  },
  {
    "compound": "Cc1cccc2cc(C(=O)Nc3cccc(N4CCN(S(=O)(=O)CCN)CC4)n3)[nH]c12",
    "IC50 (nM)": 600
  }
]

*Q* Return reported IC50; argument: CC(=O)N1CCN(C2COCC(NC(=O)c3cc4c(F)ccc(C)c4[nH]3)C2)CC1 (centres unmarked) [compound 985]
*A* 6600

*Q* Return reported IC50; argument: Cc1ccc(F)c2cc(C(=O)Nc3cccc(N4CCC5C(CCN5C)C4)c3)[nH]c12 (centres unmarked)
*A* 20

---

# subject of test: SETD2(1434-1711) (Homo sapiens, UniProt Q9BYW2)
# Construct: SETD2 (1434-1711) Assay; catalogue N/A
# Sequence (Q9BYW2 1434-1711): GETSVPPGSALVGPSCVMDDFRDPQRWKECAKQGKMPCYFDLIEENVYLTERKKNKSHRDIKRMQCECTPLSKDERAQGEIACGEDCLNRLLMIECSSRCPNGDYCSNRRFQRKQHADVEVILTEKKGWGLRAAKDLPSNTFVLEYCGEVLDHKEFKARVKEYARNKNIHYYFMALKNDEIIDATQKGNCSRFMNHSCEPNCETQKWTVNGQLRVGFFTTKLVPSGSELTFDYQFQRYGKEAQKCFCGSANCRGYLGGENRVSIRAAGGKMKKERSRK
# test details: SETD2 (1434-1711) assay
# Format: biochemical
# particulars: read-out: SETD2 (1434-1711)
# reported IC50; entries follow
Entry rule: numbers only, all in µM.

Recorded results for 10 compounds are shown here.
[
  {
    "compound": "CN[C@H]1CCN([C@H]2CCC[C@@H](NC(=O)c3cc4c(F)ccc(C)c4[nH]3)C2)C1",
    "unit symbol": "µM",
    "IC50": 0.01
  },
  {
    "compound": "Cc1ccccc1C(O)CNC(=O)c1cc2cccc(C)c2[nH]1 (centres unmarked)",
    "unit symbol": "µM",
    "IC50": 51.3
  },
  {
    "compound": "Cc1ccc(F)c2cc(C(=O)N[C@@H]3CCC[C@H](c4noc(CN(C)C)n4)C3)[nH]c12",
    "unit symbol": "µM",
    "IC50": 0.2
  },
  {
    "compound": "Cc1ccc(F)c2cc(C(=O)NC3CCCC(N4CCC(N5CCOC5=O)C4)C3)[nH]c12 (centres unmarked) [compound 958]",
    "unit symbol": "µM",
    "IC50": 0.04
  },
  {
    "compound": "COC(=O)N1CCN(c2cccc(NC(=O)c3cc4c(F)ccc(C)c4[nH]3)c2)CC1",
    "unit symbol": "µM",
    "IC50": 0.05
  },
  {
    "compound": "Cc1ccc(F)c2cc(C(=O)N[C@@H]3CCC[C@H](N4CCN(C)CC4=O)C3)[nH]c12",
    "unit symbol": "µM",
    "IC50": 1
  },
  {
    "compound": "Cc1cccc2cc(C(=O)NC(c3ncccn3)C3CC3)[nH]c12 (centres unmarked)",
    "unit symbol": "µM",
    "IC50": 44.8
  },
  {
    "compound": "Cc1ccc(F)c2cc(C(=O)Nc3cc(F)cc(N4CCN(C(=O)CN(C)C)CC4)c3)[nH]c12",
    "unit symbol": "µM",
    "IC50": 0.009
  },
  {
    "compound": "Cc1ccc(F)c2cc(C(=O)Nc3cc(Cl)cc(N4CCC(CCCN5CCOCC5)CC4)c3)[nH]c12",
    "unit symbol": "µM",
    "IC50": 0.02
  },
  {
    "compound": "Cc1ccc(F)c2cc(C(=O)Nc3cccc(-c4nnc(CN(C)C)s4)c3)[nH]c12",
    "unit symbol": "µM",
    "IC50": 0.05
  }
]

Now take the following compound into account.
*Q* Return reported IC50; argument: Cc1cccnc1C(NC(=O)c1cc2cccc(C)c2[nH]1)C(C)C (centres unmarked)
*A* 4.2

---

# reported IC50; entries follow
# subject of test: SETD2(1434-1711) (Homo sapiens)
# Construct: SETD2 (1434-1711) Assay; catalogue N/A
# test details: SETD2 (1434-1711) assay
# Assay type: biochemical
# particulars: read-out: SETD2 (1434-1711)
Entry rule: numbers only, all in µM.

Recorded results for 2 compounds are shown here.
[
  {
    "compound structure": "CC(=O)N1CCN([C@H]2CCC[C@@H](NC(=O)c3cc4c(F)ccc(C)c4[nH]3)C2)C[C@H]1C",
    "measured number": 0.004
  },
  {
    "compound structure": "Cc1cc(C)c2[nH]c(C(=O)N[C@H]3CC[C@H](NC(=O)CCN)CC3)cc2c1",
    "measured number": 179
  }
]

*Q* Return reported IC50; argument: Cc1cccc2cc(C(=O)NC3(c4cccnc4)CC3)[nH]c12
*A* 18.6

---

# subject of test: SETD2(1434-1711) (Homo sapiens, UniProt Q9BYW2)
# Construct: SETD2 (1434-1711) Assay; catalogue N/A
# Sequence (Q9BYW2 1434-1711): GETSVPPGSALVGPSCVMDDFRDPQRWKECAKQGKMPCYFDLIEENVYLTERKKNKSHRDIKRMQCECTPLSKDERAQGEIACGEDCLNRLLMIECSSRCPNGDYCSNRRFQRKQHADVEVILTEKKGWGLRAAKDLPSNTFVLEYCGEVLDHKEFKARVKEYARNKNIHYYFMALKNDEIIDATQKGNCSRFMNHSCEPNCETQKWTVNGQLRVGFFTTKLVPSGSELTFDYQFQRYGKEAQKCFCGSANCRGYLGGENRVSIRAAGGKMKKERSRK
# test details: SETD2 (1434-1711) assay
# Format: biochemical
# particulars: read-out: SETD2 (1434-1711)
measured endpoint: IC50 (nM)
Entry rule: numbers only, all in nM.

Recorded results for 3 molecules are shown here.
[
  {
    "molecule": "Cc1cccc2cc(C(=O)Nc3ccc4ccc(CN5CCN(C)CC5)cc4c3)[nH]c12",
    "unit symbol": "nM",
    "IC50": 700
  },
  {
    "molecule": "Cc1ccc(F)c2cc(C(=O)NC3CCCC(N4CCn5c(cn(C)c5=O)C4)C3)[nH]c12 (stereo not shown)",
    "unit symbol": "nM",
    "IC50": 500
  },
  {
    "molecule": "Cc1ccc(F)c2cc(C(=O)N[C@H]3CCC[C@H](N4CCCOCC4)C3)[nH]c12",
    "unit symbol": "nM",
    "IC50": 1400
  }
]

*Q* Enter reported IC50 observed with SETD2(1434-1711) (Homo sapiens, UniProt Q9BYW2) for CC(=O)N1CC2(C1)CN([C@@H]1CCC[C@@H](NC(=O)c3cc4c(F)ccc(C)c4[nH]3)C1)C2
*A* 2500

*Q* Enter reported IC50 observed with SETD2(1434-1711) (Homo sapiens, UniProt Q9BYW2) for Cc1ccc(F)c2cc(C(=O)Nc3cccc([C@@H]4CC[C@H](N(C)C)C4)c3)[nH]c12
*A* 30

*Q* Enter reported IC50 observed with SETD2(1434-1711) (Homo sapiens, UniProt Q9BYW2) for Cc1ccc(F)c2cc(C(=O)Nc3cc(F)cc(C4CCN(C5CCN(C)C5=O)C4)c3)[nH]c12 (stereo not shown)
*A* 40

*Q* Enter reported IC50 observed with SETD2(1434-1711) (Homo sapiens, UniProt Q9BYW2) for Cc1ccc(F)c2cc(C(=O)NC3CCCC(N4CCC(=O)N(C)CC4)C3)[nH]c12 (stereo not shown)
*A* 30

*Q* Enter reported IC50 observed with SETD2(1434-1711) (Homo sapiens, UniProt Q9BYW2) for CCN(C(=O)CO)C1CCN(C2CCCC(NC(=O)c3cc4c(F)ccc(C)c4[nH]3)C2)C1 (stereo not shown) [compound 1120]
*A* 5900

*Q* Enter reported IC50 observed with SETD2(1434-1711) (Homo sapiens, UniProt Q9BYW2) for Cc1ccc(F)c2cc(C(=O)Nc3cccc(-c4ccc5cncn5c4)c3)[nH]c12
*A* 70

*Q* Enter reported IC50 observed with SETD2(1434-1711) (Homo sapiens, UniProt Q9BYW2) for Cc1ccc(F)c2cc(C(=O)Nc3cccc(-c4cnco4)c3)[nH]c12
*A* 60

*Q* Enter reported IC50 observed with SETD2(1434-1711) (Homo sapiens, UniProt Q9BYW2) for Cc1ccc(F)c2cc(C(=O)Nc3cccc(-c4ncc[nH]4)c3)[nH]c12
*A* 1000
